src = patent US8771953B2

Overview of recorded activation at 10 µM for various compounds
test system: 5-HT2cR mRNA; test: Editing profile of 5-HT2cR mRNA isoforms by CE-SSCP (nested PCR) in SH-SY5Y cells; enzyme activity indexes worked out from the profile; assay type: cell-based, human; settings: Homo sapiens; SH-SY5Y, 10 micromolar, 24 hours; read-out: ENZYME ACTIVIY INDEX (% of variation) ADAR2
observation type: activation at 10 µM (%)

In [3]: df
Out[3]:
                                   compound     observation_type  result_unit  endpoint_value
0  CC1(C)O[C@@H]2[C@@H](CO[C@@]3(COS(N)(=O)=O)OC(C)(C)O[C@@H]23)O1 [Topiramate]  activation at 10 µM            %            11.4
1   NC(=O)OCC(COC(N)=O)c1ccccc1 [Felbamate]  activation at 10 µM            %           -24.6
2  Cc1c(C(=O)NN2CCCCC2)nn(-c2ccc(Cl)cc2Cl)c1-c1ccc(Cl)cc1 [Rimonabant]  activation at 10 µM            %            -3.7
3     NS(=O)(=O)Cc1noc2ccccc12 [Zonisamide]  activation at 10 µM            %            -7.8
4  O=c1n(CCCN2CCN(c3cccc(Cl)c3)CC2)nc2ccccn12 [Trazodone]  activation at 10 µM            %            28.4

###

tested on: 5-HT2cR mRNA; assay: Editing profile of 5-HT2cR mRNA isoforms by CE-SSCP (nested PCR) in SH-SY5Y cells; enzyme activity indexes worked out from the profile; type: cell-based, human; conditions: Homo sapiens; SH-SY5Y, 10 micromolar, 24 hours; read-out: ENZYME ACTIVIY INDEX (% of variation) ADAR1 + 2
observation type: activation at 10 µM (%)

                                   compound  result_unit  endpoint_value
0  O=c1n(CCCN2CCN(c3cccc(Cl)c3)CC2)nc2ccccn12 [Trazodone]            %            89.3
1  CC[C@@H](C(N)=O)N1CCCC1=O [Levetiracetam]            %           -36.6
2  NC(=O)N1c2ccccc2CC(=O)c2ccccc21 [Oxcarbazepine]            %           -25.6
3  CN(C)CCCC1(c2ccc(F)cc2)OCc2cc(C#N)ccc21 (stereo not drawn) [Citalopram]            %            70.2
4  NC(=O)N1c2ccccc2C=Cc2ccccc21 [Carbamazepine]            %            38.8
5  CC1(C)O[C@@H]2[C@@H](CO[C@@]3(COS(N)(=O)=O)OC(C)(C)O[C@@H]23)O1 [Topiramate]            %           -19.5

###

system: ADAR1b mRNA; assay: Q-PCR of ADAR1b mRNA expression in SH-SY5Y cells; assay type: cell-based; settings: Homo sapiens, 10 micromolar, 24 hours, read-out: QPCR: RNA expresion (% of variation) ADAR1b
Hi! Could you tag entries with percent change in mRNA expression at 10 µM below -30% as true, and those at or above as false? Much appreciated.

In [3]: df
Out[3]:
                                    molecule  category
 0     NS(=O)(=O)Cc1noc2ccccc12 [Zonisamide]     false
 1  Nc1nnc(-c2cccc(Cl)c2Cl)c(N)n1 [Lamotrigine]     false
 2   NC(=O)OCC(COC(N)=O)c1ccccc1 [Felbamate]     false
 3  Cc1c(C(=O)NN2CCCCC2)nn(-c2ccc(Cl)cc2Cl)c1-c1ccc(Cl)cc1 [Rimonabant]      true
 4  CN(C)CCCC1(c2ccc(F)cc2)OCc2cc(C#N)ccc21 (stereo not shown) [Citalopram]     false
 5  NC(=O)N1c2ccccc2C=Cc2ccccc21 [Carbamazepine]      true
 6          NCC1(CC(=O)O)CCCCC1 [Gabapentin]      true
 7  CC(NC(C)(C)C)C(=O)c1cccc(Cl)c1 (stereo not shown) [Bupropion]      true
 8  CCNC(C)Cc1cccc(C(F)(F)F)c1 (stereo not shown) [Fenfluramine]     false
 9  NC(=O)N1c2ccccc2CC(=O)c2ccccc21 [Oxcarbazepine]     false
10  Cc1cc2c(s1)Nc1ccccc1N=C2N1CCN(C)CC1 [Olanzapine]     false
11  CC[C@@H](C(N)=O)N1CCCC1=O [Levetiracetam]     false
12  O=c1n(CCCN2CCN(c3cccc(Cl)c3)CC2)nc2ccccn12 [Trazodone]      true
13  CC1(C)O[C@@H]2[C@@H](CO[C@@]3(COS(N)(=O)=O)OC(C)(C)O[C@@H]23)O1 [Topiramate]      true
14       CC(C)C[C@H](CN)CC(=O)O [Pregabalin]      true
15  CNCCCN1c2ccccc2CCc2ccccc21 [Desipramine]      true
